Ref: PubChem BioAssay AID492953

ASSAYED_TARGET: Platelet-activating factor acetylhydrolase IB subunit alpha2 (Homo sapiens) (UniProt P68402)
Sequence (P68402 whole entry, looked up): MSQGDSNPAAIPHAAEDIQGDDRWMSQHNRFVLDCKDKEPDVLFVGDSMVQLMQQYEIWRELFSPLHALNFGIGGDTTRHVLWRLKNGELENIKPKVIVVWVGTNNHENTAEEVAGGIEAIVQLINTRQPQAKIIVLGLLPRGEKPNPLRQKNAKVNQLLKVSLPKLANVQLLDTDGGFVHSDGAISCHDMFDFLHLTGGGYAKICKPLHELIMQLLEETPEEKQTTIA
TEST_PROTOCOL: inhibition of PAF acetylhydrolase 1b subunit 2 – biochemical, fluorescence polarization, human, primary screen (AID 492953);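 further: 0% = enzyme with DMSO and 100% = wells lacking PAFAH1B2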
ASSAY_CONDITIONS: recombinant PAFAH1B2, FP-rhodamine activity probe, at 3.39 µM, hits give high values
Screen size: about 340,000 compounds; about 4,200 (1.2%) were called active. This is one part of a sample in which actives are shown more often than they occur.
OBSERVED_PROPERTY: inhibition

Below, each entry is followed by its recorded inhibition result.
Cc1cccc(OP(=O)(Oc2cccc(C)c2)OC(c2ccccc2)C(F)(F)F)c1 (configuration not stated) = 10.7% (inactive)
CN(C)CC1CCCCC1OC(=O)c1ccc(Cl)c(Cl)c1 (configuration not stated) = -0.45% (inactive)
N[C@@H](Cc1c[nH]c2ccccc12)c1nnc(SCc2c(F)cccc2Cl)o1 = 3.92% (inactive)

Inquiry: Look up inhibition for this compound: `CCCCCn1c(=O)c(C(=O)Nc2c(C)n(C)n(-c3ccccc3)c2=O)c(O)c2ccccc21`
Reply text: -3.03% (inactive)

Inquiry: Now the compound O=C(NCC(c1cccnc1)N1CCN(c2ccccc2)CC1)Oc1ccccc1 (configuration not stated)
Reply text: 4.28% (inactive)

Inquiry: Please do the same for `Nc1ccc(C(=O)N/N=C2/CN3CCC2CC3)cc1` as well.
Reply text: -0.84% (inactive)

Inquiry: Next compound up: CN(C)CC1Oc2ccccc2OC1(O)c1ccccc1 (configuration not stated)
Reply text: 0.51% (inactive)

====

ASSAYED_TARGET: Platelet-activating factor acetylhydrolase IB subunit alpha2 (Homo sapiens)
TEST_PROTOCOL: inhibition of PAF acetylhydrolase 1b subunit 2 – biochemical, fluorescence polarization, human, primary screen (AID 492953);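 further: 0% = enzyme with DMSO and 100% = wells lacking PAFAH1B2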
ASSAY_CONDITIONS: recombinant PAFAH1B2, FP-rhodamine activity probe, at 3.39 µM, hits give high values
Out of some 340,000 compounds screened, about 4,200 (1.2%) were called active. This is one part of a sample in which actives are shown more often than they occur.
Reported inhibition values are given for each entry in this list.
Field format: number, assumed %, no unit text.

Inquiry: Reported inhibition for Platelet-activating factor acetylhydrolase IB subunit alpha2 (Homo sapiens), given `O=C1N=c2ccccc2=C/C1=C\c1c(O)[nH]c(=S)[nH]c1=O` ?
Reply text: 3.53

Inquiry: Also `CCC(=NCc1ccco1)c1c(O)n(Cc2ccccc2)c(=O)[nH]c1=O` , if possible.
Reply text: 3.82

====

ASSAYED_TARGET: Platelet-activating factor acetylhydrolase IB subunit alpha2 (Homo sapiens)
TEST_PROTOCOL: inhibition of PAF acetylhydrolase 1b subunit 2 – biochemical, fluorescence polarization, human, primary screen (AID 492953);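 further: 0% = enzyme with DMSO and 100% = wells lacking PAFAH1B2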
ASSAY_CONDITIONS: recombinant PAFAH1B2, FP-rhodamine activity probe, at 3.39 µM
In all, about 340,000 compounds went through this assay and about 4,200 (1.2%) were called active.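 How the source made its calls: active means inhibition above the mean of all tested compounds plus 3 SD (cut at about 24% in these data); inactive means the rest.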 The list comes from a sample in which actives are over-represented; it also holds close analogues and randomly drawn compounds.
Returns: one label drawn from class 1 = active, class 0 = inactive

Use the examples below as a reference point.
CCOC(=O)C1(c2ccccc2)CCN(CC(O)c2ccc(NC(C)=O)cc2)CC1 (stereo not drawn) = class 0
CC/C(=N\NC(=O)c1ccccc1O)c1c(O)n(Cc2ccccc2)c(=O)[nH]c1=O = class 1
CNC(=O)O/N=C(\N)Cc1csc2ccc(Cl)cc12 = class 1
Cc1ccc2c(c1)=C/C(=C\c1c(O)[nH]c(=O)[nH]c1=O)C(=O)N=2 = class 1
Cc1ccc(Cn2c(C)c3cnn(CC(=O)N4CCC5(CC4)OCCO5)c(=O)c3c2C)cc1 = class 0
CCCCCCN=C(CC)c1c(O)n(CCCC)c(=O)[nH]c1=O = class 0
CC1=CC(=Cc2sc3ccccc3[n+]2C)C=C(C)O1 = class 0

Proceed to the following item.
Inquiry: Which outcome was assigned to `O=C(CSC1c2ccccc2-c2ccccc21)N/N=C/c1ccccc1` in this test?
Reply text: class 0
